Compiled literature IC50, tested on PYK2 (Homo sapiens (Human), UniProt Q14289).
Sequence (Q14289 whole entry): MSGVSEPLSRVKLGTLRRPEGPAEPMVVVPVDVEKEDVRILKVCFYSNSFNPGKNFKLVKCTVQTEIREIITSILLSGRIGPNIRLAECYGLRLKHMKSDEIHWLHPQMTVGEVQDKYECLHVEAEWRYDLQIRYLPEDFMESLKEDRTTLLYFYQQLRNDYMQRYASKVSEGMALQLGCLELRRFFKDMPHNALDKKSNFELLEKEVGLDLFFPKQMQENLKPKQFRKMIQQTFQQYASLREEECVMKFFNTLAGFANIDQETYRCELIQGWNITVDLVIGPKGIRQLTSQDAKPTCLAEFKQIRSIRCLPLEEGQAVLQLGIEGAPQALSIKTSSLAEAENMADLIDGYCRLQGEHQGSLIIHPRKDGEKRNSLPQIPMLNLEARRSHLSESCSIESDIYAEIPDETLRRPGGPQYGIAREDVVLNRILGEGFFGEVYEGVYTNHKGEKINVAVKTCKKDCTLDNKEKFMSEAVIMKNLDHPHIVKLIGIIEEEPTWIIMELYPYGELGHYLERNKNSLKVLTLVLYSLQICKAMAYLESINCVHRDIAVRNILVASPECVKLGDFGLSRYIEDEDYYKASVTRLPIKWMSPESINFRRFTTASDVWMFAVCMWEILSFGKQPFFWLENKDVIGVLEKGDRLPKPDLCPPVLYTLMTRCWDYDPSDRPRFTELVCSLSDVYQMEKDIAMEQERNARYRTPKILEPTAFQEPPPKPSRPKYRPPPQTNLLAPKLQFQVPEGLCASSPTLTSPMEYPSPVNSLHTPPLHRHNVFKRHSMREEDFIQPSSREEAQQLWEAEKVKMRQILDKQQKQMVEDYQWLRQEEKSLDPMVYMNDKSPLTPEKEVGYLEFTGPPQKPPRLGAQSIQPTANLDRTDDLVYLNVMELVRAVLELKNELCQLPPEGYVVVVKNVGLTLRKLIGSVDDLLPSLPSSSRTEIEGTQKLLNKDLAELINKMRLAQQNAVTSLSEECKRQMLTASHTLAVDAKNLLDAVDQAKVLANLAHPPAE

# MOLECULE, IC50
measured = [
    ("O=C(c1ccc(O)cc1Cl)c1c[nH]c2ncc(-c3cccs3)cc12", "≤ 10000 nM"),
    ("COc1cc(N2CCOCC2)ccc1Nc1nc2c(c(Nc3cccc(C)n3)n1)C(C)(C)CN2", "< 500 nM"),
    ("COc1cc(N2CCOCC2)ccc1Nc1nc2c(c(Nc3ccccc3S(=O)(=O)Nc3ccccc3)n1)CCN2", "< 500 nM"),
]

In: Need IC50 of "COc1cc(N2CCC(N3CCCC3)CC2)ccc1Nc1nc2c(c(Nc3ccccc3S(=O)(=O)NC(C)C)n1)CCN2" , thanks.
Out: < 20 nM

In: Another: "O=C(Nc1ccc(Cc2c[nH]c3ncccc23)cc1)Nc1ccc(Cl)c(C(F)(F)F)c1"
Out: ≤ 10000 nM

In: Another: "CNS(=O)(=O)c1ccc2c(c1)/C(=C/c1c(C)[nH]c3ccccc13)C(=O)N2"
Out: > 100000 nM

In: Another: "CNC(=O)c1ccccc1Nc1nc(Nc2ccc(N3CCOCC3)cc2OC)nc2c1C1(CC1)CN2"
Out: < 20 nM

In: Another: "COc1cc(N2CCOCC2)ccc1Nc1nc2c(c(Nc3ccccc3NC(C)=O)n1)C(C)(C)CN2"
Out: < 200 nM

###

pIC50: −log10 of the molar value.
Compiled literature pIC50, tested on PYK2 (Homo sapiens (Human), UniProt Q14289).

These solved cases illustrate the format of a correct answer.
# COMPOUND, ATTRIBUTE MEASURED, VALUE MEASURED
data = [
    ("COc1cc(N2CCOCC2)ccc1Nc1nc2c(c(Nc3ccccc3S(=O)(=O)NC3CC3)n1)C1(CC1)CN2", "pIC50", "< 6.00"),
    ("COc1cc(N2CCOCC2)ccc1Nc1nc2c(c(Nc3ccccc3S(=O)(=O)NCCO)n1)C(C)(C)CN2", "pIC50", "> 6.70"),
    ("CC(C)(C)OC(=O)Nc1ccc(F)c(C(O)c2c[nH]c3ncc(Br)cc23)c1F (centres unmarked)", "pIC50", "≥ 5.00"),
]

In: Need pIC50 of "CC(=O)c1ccc2c(c1)C(=Cc1cc3ccccc3[nH]1)C(=O)N2" , thanks.
Out: 4.91

###

Compiled literature IC50, tested on PYK2 (Homo sapiens (Human)).

These solved cases illustrate the format of a correct answer.
# COMPOUND, IC50
data = [
    ("CN(C)C(=O)CCc1c(/C=C2\\C(=O)Nc3ccccc32)[nH]c2c1CCCC2", "12000 nM"),
    ("COc1cc(N2CCOCC2)ccc1Nc1nc2c(c(Nc3ccccc3S(=O)(=O)NCCN(C)C)n1)CCN2", "< 500 nM"),
    ("COc1cccc(Cc2c[nH]c3ncc(-c4cccs4)cc23)c1", "≤ 10000 nM"),
    ("CCN1C(=O)CCCc2c1ccc(Nc1nc3c(c(Nc4ccccc4C(=O)NC)n1)C(C)(C)CN3)c2OC", "< 50 nM"),
    ("CCOC(=O)c1c(C)[nH]c(/C=C2\\C(=O)Nc3cccc(CCO)c32)c1CCCN1CCCC1", "220 nM"),
    ("CC(C)NS(=O)(=O)c1ccccc1Nc1nc(Nc2ccc(N3CCOCC3)cn2)nc2c1CCN2", "< 50 nM"),
]

In: Need IC50 of "COc1cc(N2CCOCC2)ccc1Nc1nc2c(c(Nc3ccccc3S(=O)(=O)NC3CCCCC3)n1)CCN2" , thanks.
Out: < 500 nM

In: Another: COc1cc(N2CCOCC2)ccc1Nc1nc2c(c(Nc3ccccc3S(=O)(=O)NC3CCC3)n1)C(C)CN2 (racemic)
Out: < 20 nM
